Test: Pharmacokinetic measurements of H3B-6527 capsules in patients (trial NCT02834780), plasma LC-MS/MS
Type: in vivo, human
Conditions: 500 mg BID, fasted, Day 1; Table 5, nominal times
measured attribute: AUC, geometric mean (CV%)

Requested field: AUC, geometric mean (CV%). Item: C=CC(=O)Nc1cc(N2CCN(CC)CC2)ccc1Nc1cc(N(C)C(=O)Nc2c(Cl)c(OC)cc(OC)c2Cl)ncn1
470 ng·h/mL

* * *

Experiment: Pharmacokinetic measurements of H3B-6527 capsules in patients (trial NCT02834780), plasma LC-MS/MS
Type: in vivo, human
Settings: human, plasma, oral, 600 mg, 600 mg QD, fasted, Day 8; Table 5, nominal times; read-out: Half-life, geometric mean (CV%) (converted)
measured attribute: half-life (h)
Write down the numeric answer in h and omit the unit.

For the molecule shown here, C=CC(=O)Nc1cc(N2CCN(CC)CC2)ccc1Nc1cc(N(C)C(=O)Nc2c(Cl)c(OC)cc(OC)c2Cl)ncn1 [H3B-6527] , give the reported half-life.
4.8

* * *

Assay: Pharmacokinetic measurements of H3B-6527 capsules in patients (trial NCT02834780), plasma LC-MS/MS
Format: in vivo, human
Settings: human, plasma, oral, 300 mg, 300 mg QD, fasted, Day 8; Table 6, actual times after QC; read-out: Half-life, geometric mean (CV%) (converted)
measured attribute: half-life (h)
Record the value in h, omitting the unit from your answer.

Name the reported half-life value associated with the compound C=CC(=O)Nc1cc(N2CCN(CC)CC2)ccc1Nc1cc(N(C)C(=O)Nc2c(Cl)c(OC)cc(OC)c2Cl)ncn1 [H3B-6527]
3.55

* * *

Experiment: Pharmacokinetic measurements of H3B-6527 capsules in patients (trial NCT02834780), plasma LC-MS/MS
Type: in vivo, human
Conditions: human, plasma, oral, 1000 mg, 1000 mg QD, fasted, Day 1; Table 5, nominal times; read-out: Tmax, median (min-max)
measured attribute: Tmax (h)
Unit h implied. Number only.

Look at this compound and give its reported Tmax. C=CC(=O)Nc1cc(N2CCN(CC)CC2)ccc1Nc1cc(N(C)C(=O)Nc2c(Cl)c(OC)cc(OC)c2Cl)ncn1
2.01

* * *

Experiment: Pharmacokinetic measurements of H3B-6527 capsules in patients (trial NCT02834780), plasma LC-MS/MS
Assay type: in vivo, human
Conditions: human, plasma, oral, 700 mg, 700 mg BID, fed, Day 1; Table 6, actual times after QC; read-out: Cmax, geometric mean (CV%)
measured attribute: Cmax (ng/mL)
Give the value in ng/mL but do not write ng/mL after it.

Fill blank: measured Cmax of the compound C=CC(=O)Nc1cc(N2CCN(CC)CC2)ccc1Nc1cc(N(C)C(=O)Nc2c(Cl)c(OC)cc(OC)c2Cl)ncn1 is ____.
163

* * *

Assay: Pharmacokinetic measurements of H3B-6527 capsules in patients (trial NCT02834780), plasma LC-MS/MS
Format: in vivo, human
Conditions: human, plasma, oral, 500 mg, 500 mg BID, fed, Day 8; Table 6, actual times after QC; read-out: AUC, geometric mean (CV%)
measured attribute: AUC (ng·h/mL)
Give your result in ng·h/mL as a bare value.

Which AUC value belongs to C=CC(=O)Nc1cc(N2CCN(CC)CC2)ccc1Nc1cc(N(C)C(=O)Nc2c(Cl)c(OC)cc(OC)c2Cl)ncn1 [H3B-6527] ?
814

Ref: patent US20230172867A1
